- assayed-system: trypsin, type IX from porcine pancreas (Sus scrofa, UniProt P00761)
- Construct: purchased Sigma, St Louis Mo. type IX; host or cells: porcine pancreas
- Sequence (P00761 9-231): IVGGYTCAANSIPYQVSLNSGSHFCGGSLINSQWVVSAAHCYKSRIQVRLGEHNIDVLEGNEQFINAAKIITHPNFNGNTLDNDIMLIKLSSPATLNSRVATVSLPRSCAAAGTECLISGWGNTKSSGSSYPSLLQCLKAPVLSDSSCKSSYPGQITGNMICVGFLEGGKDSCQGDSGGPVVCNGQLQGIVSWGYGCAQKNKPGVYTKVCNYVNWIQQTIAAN
- assay-info: Trypsin Assay
- Format: biochemical
- measurement-conditions: L-BAPNA substrate, 60 min, room temperature, pH 8.0; read-out: Trpysin II ICSO
pIC50: −log10 of the molar value.
readout-kind: pIC50

Form entry - test system: trypsin, type IX from porcine pancreas (Sus scrofa, UniProt P00761); read-out: pIC50; compound: `N=C(N)NCCC[C@H](NC(=O)Cn1c(=O)c(NS(=O)(=O)Cc2ccccc2)cc2ccccc21)C(=O)c1nccs1`
6.68

# query: pIC50 | item `NCCCCNC(=O)Cn1c(=O)c(NS(=O)(=O)Cc2ccccc2)cc2ccccc21` | system: trypsin, type IX from porcine pancreas (Sus scrofa, UniProt P00761)
< 4.52

# get_value(readout= pIC50, system= trypsin, type IX from porcine pancreas (Sus scrofa, UniProt P00761)) for `N=C(N)c1ccc(CNC(=O)Cn2c(CCc3ccccc3)ccc(NS(=O)(=O)Cc3ccccc3)c2=O)cc1`
> 7.00

Record `O=C(Cn1c(=O)c(NS(=O)(=O)Cc2ccccc2)cc2ccccc21)NCCc1cnc[nH]1` : what is its pIC50 with trypsin, type IX from porcine pancreas (Sus scrofa, UniProt P00761)?
< 4.52

Enter reported pIC50 observed with trypsin, type IX from porcine pancreas (Sus scrofa, UniProt P00761) for `CN1CCC(CCCNC(=O)Cn2c(=O)c(NS(=O)(=O)Cc3ccccc3)cc3ccccc32)CC1`
< 4.52
